Answer each item with its documented koff.
target: T1, Taq DNA polymerase (Thermus aquaticus, UniProt P19821 1-832); assay: AMC sensor, antibody immobilised
T1 construct: also called Taq enzyme; Taq DNA enzyme
T1 sequence (P19821 whole entry): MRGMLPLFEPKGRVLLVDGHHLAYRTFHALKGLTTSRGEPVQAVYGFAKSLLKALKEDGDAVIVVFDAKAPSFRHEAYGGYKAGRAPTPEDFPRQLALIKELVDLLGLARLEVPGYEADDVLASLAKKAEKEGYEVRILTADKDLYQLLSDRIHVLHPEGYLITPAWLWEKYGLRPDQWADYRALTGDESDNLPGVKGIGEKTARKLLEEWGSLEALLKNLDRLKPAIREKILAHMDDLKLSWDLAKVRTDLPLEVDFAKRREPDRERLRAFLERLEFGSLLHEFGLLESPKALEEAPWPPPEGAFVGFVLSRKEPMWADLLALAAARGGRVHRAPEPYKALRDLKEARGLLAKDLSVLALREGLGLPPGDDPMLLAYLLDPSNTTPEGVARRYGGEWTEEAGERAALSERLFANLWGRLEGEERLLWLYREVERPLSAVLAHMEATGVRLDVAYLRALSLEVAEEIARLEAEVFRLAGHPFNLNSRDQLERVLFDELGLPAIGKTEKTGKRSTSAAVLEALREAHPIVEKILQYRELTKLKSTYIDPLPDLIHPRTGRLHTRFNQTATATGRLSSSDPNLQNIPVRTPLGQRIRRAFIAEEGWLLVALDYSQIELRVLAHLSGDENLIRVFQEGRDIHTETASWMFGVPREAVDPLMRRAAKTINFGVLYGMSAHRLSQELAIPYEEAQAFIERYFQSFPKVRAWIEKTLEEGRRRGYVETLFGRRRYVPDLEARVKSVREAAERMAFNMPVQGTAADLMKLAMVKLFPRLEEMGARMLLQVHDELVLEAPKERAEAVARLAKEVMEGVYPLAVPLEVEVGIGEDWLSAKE
The reply should consist of the numeric value with the unit placed after it.

Reference set (2 entries):
• Mutation 1-30 (antibody, V domains shown, Mutation 1 background; CDRs built; CDR-VL3 cell printed VL, read as V/L) VH: QVQLQQPGAELVKPGASVRLSCQTSVNTFSTYYIYWVKQRPGEGLEWIGGINPTSGGPVFNEKFKSKATLTVDTSSSTAYMQLSSLTSVDSAVYYCTRSVLRRGYYFDYWGQGTALTVSS VL: DIQMTQTTSSLSASLGDRVTISCRASQDIQNYVNWYQQKPDGTIKLLIYYTSRLQSGVPSRFSGSGSGTDYSLTIANLEQEDIATYFCQQDDTVPLTFGAGTKVELKR = 4.49e-05 s⁻¹
• Mutation 1-36 (antibody, V domains shown, Mutation 1 background; CDRs built) VH: QVQLQQPGAELVKPGASVRLSCQTSVETFSTYYIYWVKQRPGEGLEWIGGINPTSNPVFNEKFKSKATLTVDTSSSTAYMQLSSLTSVDSAVYYCTRSILRRGYYFDYWGQGTALTVSS VL: DIQMTQTTSSLSASLGDRVTISCRASQDIQNYVNWYQQKPDGTIKLLIYYTSRLQSGIPSRFSGSGSGTDYSLTIANLEQEDIATYFCQQDDTIPLTFGAGTKVELKR = 3.85e-05 s⁻¹

# ---- query binder ----
Exercise: Fill in: koff of Mutation 1-16 (antibody, V domains shown, Mutation 1 background; CDRs built) VH: QVQLQQPGAELVKPGASVRLSCQTSVNTFSTYYIYWVKQRPGEGLEWIGGINPTSGGPVFNEKFKSKATLTVDTSSSTAYMQLSSLTSVDSAVYYCTRSLVRRGYYFDYWGQGTALTVSS VL: DIQMTQTTSSLSASLGDRVTISCRASQDIQNYINWYQQKPDGTIKLLIYYTSRLNSGVPSRFSGSGSGTDYSLTIANLEQEDIATYFCQQDDTLPITFGAGTKVELKR is ___
Solution: 1.45e-05 s⁻¹
